Reported Km by item:
TARGET: KDM4E (Homo sapiens)
Construct: His6 (N); made in house; host or cells: Escherichia coli
Sequence (B2RXH2 1-337): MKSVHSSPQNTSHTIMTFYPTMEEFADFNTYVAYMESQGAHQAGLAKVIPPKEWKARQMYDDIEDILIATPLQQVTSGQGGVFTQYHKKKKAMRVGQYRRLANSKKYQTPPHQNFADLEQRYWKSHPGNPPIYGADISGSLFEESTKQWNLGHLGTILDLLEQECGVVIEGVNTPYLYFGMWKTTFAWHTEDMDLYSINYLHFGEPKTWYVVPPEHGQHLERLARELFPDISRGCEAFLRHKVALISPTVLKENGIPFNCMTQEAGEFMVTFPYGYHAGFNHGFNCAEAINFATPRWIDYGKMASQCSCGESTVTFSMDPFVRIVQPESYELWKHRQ
PROTOCOL: Formaldehyde dehydrogenase-coupled demethylation assay, KDM4E
Assay type: biochemical
MEASUREMENT_PARAMETERS: KDM4E catalytic domain; apparent, preliminary; FDH/NAD+-coupled formaldehyde assay, 37 °C, 2OG 200 μM, Fe(II) 10 μM, ascorbate 100 μM; mean±s.e.m., n=3
MEASUREMENT_NAME: Km

SG-Rme2a-GKGGKGLGKGGA [H4(1-15)R3me2a, 'natural' histone H4 residues 1-15 peptide asymmetrically dimethylated at R3]: 122 µM
A-Rme2a-TKQTARKSTGGKA [H3(1-15)R2me2a, 'natural' histone H3 peptide asymmetrically dimethylated at R2]: 86.9 µM
ARTKQTAR-Rme-STGGKA (ARTKQTARRSTGGKA; monomethylarginine at 9; C-terminal amide) [H3(1-15)K9Rme, histone H3 fragment with monomethylarginine replacing methylated K9]: 169 µM
ARTKQTAR-Rme2s-STGGKA (ARTKQTARRSTGGKA; symmetric dimethylarginine at 9; C-terminal amide) [H3(1-15)K9Rme2s, histone H3 fragment with symmetric dimethylarginine replacing methylated K9]: 101 µM
ARTKQTAR-Rme2a-STGGKA (ARTKQTARRSTGGKA; asymmetric dimethylarginine at 9; C-terminal amide) [H3(1-15)K9Rme2a, histone H3 fragment with asymmetric dimethylarginine replacing methylated K9]: 66 µM
